B1: SLC22A15 (parent)
chain: IAQYALLGYFIRSWRTLAILVNLQ

# Variants of: B1
# Experiment Summary: protein stability index of a GFP-peptide fusion (GPS, HEK-293T) (PSI 1-6); higher = more stable;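 note: lentivirally expressed fusions sorted by FACS into six bins by GFP to DsRed ratio, PSI derived from sequencing read proportions per bin multiplied by bin number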
# Measurement Setup: c terminus: a fixed tail appended
Measured Attribute: protein stability index

* Q24N | 2.07
* V21G | 1.76
* L20I | 5.13
* I19K | 2.96
* S13H | 3.68
* L17D | 2.83
* I11S | 2.68
* I1V | 2.17
* N22S | 2.85
* F10G | 1.67
* I19W | 2.01
* S13C | 3.26
* R15F | 3.18
* R15C | 2.86
* Y4P | 4.01
* L17M | 2.57
* R15Q | 2.52
* G8Y | 1.76
* Q3A | 3.14
* I11N | 2.32
* L20E | 2.77
